- test: photoluminescence quantum yield (fraction); solvent given as SMILES
- test parameters: in CO
assay readout: photoluminescence quantum yield

{"compound": "CCCCCCCCN1c2ccc(C#Cc3ccc(OC)cc3)cc2Sc2cc(C=O)ccc21", "photoluminescence quantum yield": 0.07}

A. Nc1cc2ccc3cccc4ccc(c1)c2c34
B. O=C1c2ccccc2C2=Cc3ccccc3B(O)N12
C. O=C(O)C1=C/C(=C/C=[N+]2/c3cc(O)c(C[C@@H]4O[C@H](CO)[C@@H](O)C(O)[C@H]4O)cc3C[C@H]2C(=O)O)C[C@@H](C(=O)O)N1 (stereo not given in full)
D. CCCn1c2cccc3oc4cccc5c4[c+](c32)c2c1cccc2n5CCC
Ordering criterion: photoluminescence quantum yield; begin with the maximum. # list labels per requested ordering B, D, A, C
(B: 0.74, D: 0.41, A: 0.17, C: 0.0013)

----------
- test: photoluminescence quantum yield (fraction); solvent given as SMILES
- test parameters: in CC(C)=O
Each record here notes measured photoluminescence quantum yield.
Please give the numeric answer without any surrounding text.

The examples below pair each entry with its known result.
{"structure notation": "O=Cc1c(O)c(-c2nc3ccccc3s2)cc2ccccc12", "photoluminescence quantum yield": 0.053}
{"structure notation": "CCCCCCCCC1(CCCCCCCC)c2ccccc2-c2ccc(N(c3ccc(-n4c5ccccc5c5ccccc54)cc3)c3ccc4c(c3)C(CCCCCCCC)(CCCCCCCC)c3ccccc3-4)cc21", "photoluminescence quantum yield": 0.31}
{"structure notation": "COc1ccc(C(=O)NN2C3=C(CC4=C2CCCC4=O)C(=O)CCC3)cc1", "photoluminescence quantum yield": 0.48}
{"structure notation": "COc1ccc(/C=C/C2=CC(/C=C/c3ccc(OC)c4ccccc34)=[O+][B-](F)(F)O2)c2ccccc12", "photoluminescence quantum yield": 0.21}
{"structure notation": "O=Cc1cc(C=O)c2ccc3c(N4CCCCC4)cc(N4CCCCC4)c4ccc1c2c43", "photoluminescence quantum yield": 0.9}
{"structure notation": "COC(=O)c1ccc(C#Cc2ccc(N(C)C)cc2)cc1", "photoluminescence quantum yield": 0.428}
{"structure notation": "[C-]#[N+]c1ccc(-c2ccc(N)cc2)cc1", "photoluminescence quantum yield": 0.52}
{"structure notation": "C(=C\\c1nc2ccccc2[nH]1)/c1ccc(/C=C/c2nc3ccccc3[nH]2)cc1", "photoluminescence quantum yield": 0.609}
{"structure notation": "CCC1=C(C)C2=C(C)c3c(I)c(I)cn3[B-](F)(F)[N+]2=C1C", "photoluminescence quantum yield": 0.024}
{"structure notation": "C#CCN1C(=O)/C(=C/c2cc(OC(C)C)ccc2OC(C)C)N=C1C", "photoluminescence quantum yield": 0.12}

Annotate the molecule COc1nc(Nc2ccc3c4c(cccc24)C(=O)c2ccccc2-3)nc(OC)n1 with its measured photoluminescence quantum yield. 0.66

Identify the reported photoluminescence quantum yield for the following entry. Cc1ccc(-n2c3ccccc3c3cc(C(=C(C#N)C#N)c4ccccc4)ccc32)cc1 0.05

Output measured photoluminescence quantum yield for this item: CCC1=C(C)C2=C(C)c3cc(I)cn3[B-](F)(F)[N+]2=C1C 0.087

----------
- test: photoluminescence quantum yield (fraction); solvent given as SMILES
- test parameters: in Cc1ccccc1
Entries and their measured photoluminescence quantum yield follow.
Number only, please.

Some compounds with known photoluminescence quantum yield results, for comparison:
{"compound": "CC1(C)OB(c2cc3ccc4cccc5ccc(c2)c3c45)OC1(C)C", "assay readout": "photoluminescence quantum yield", "quantitative result": 0.72}
{"compound": "CCCC1=Cc2nc1ccc1[nH]c(cc1CCC)c1nc(c(OC(=O)CCCC(=O)OC(C)(C)C)cc3[nH]c2cc3CCC)C(CCC)=C1", "assay readout": "photoluminescence quantum yield", "quantitative result": 0.21}
{"compound": "CN(C)c1ccc(C#Cc2ccc(C=O)cc2)cc1", "assay readout": "photoluminescence quantum yield", "quantitative result": 0.337}
{"compound": "CCn1c2ccccc2c2cc(/C=C/c3cc(/C=C/c4ccc5c(c4)c4ccccc4n5CC)[n+](CCCS(=O)(=O)[O-])c(/C=C/c4ccc5c(c4)c4ccccc4n5CC)c3)ccc21", "assay readout": "photoluminescence quantum yield", "quantitative result": 0.09}
{"compound": "C(=C\\c1cc(/C=C/c2ccc(-n3c4ccccc4c4ccccc43)cc2)cc(/C=C/c2ccc(-n3c4ccccc4c4ccccc43)cc2)c1)/c1ccc(-n2c3ccccc3c3ccccc32)cc1", "assay readout": "photoluminescence quantum yield", "quantitative result": 0.59}

Provide only the value of recorded photoluminescence quantum yield for c1cc2c([nH]c3c4[nH]c5sccc5c4c4nsnc4c23)s1 0.42

Tell me its photoluminescence quantum yield given c1ccc2c(c1)-c1ccccc1C21c2ccccc2-c2c1c1c3ccccc3ccc1c1ccccc21 as the entry. 0.61

Look up and state reported photoluminescence quantum yield for F[B-]1(F)n2cccc2C=C2c3ccccc3C(c3ccc[nH]3)=[N+]21 0.81

Find the measured photoluminescence quantum yield of CCCCC(CC)CN1C(=O)C2=C(c3ccc(-c4ccc(C5=C6C(C)=CC(C)=[N+]6[B-](F)(F)n6c(C)cc(C)c65)cc4)s3)N(CC(CC)CCCC)C(=O)C2=C1c1cccs1 (stereo unspecified) and report it. 0.57

Supply reported photoluminescence quantum yield belonging to this compound: CC(C)(C)c1ccc(C2=CC3=C(c4ccccc4)c4cc(-c5ccc(C(C)(C)C)cc5)c(-c5ccc(C(C)(C)C)cc5)n4[B-](F)(F)[N+]3=C2c2ccc(C(C)(C)C)cc2)cc1 0.43

Query photoluminescence quantum yield for C(#Cc1ccc2ncsc2c1)c1ccc(N(c2ccccc2)c2ccccc2)cc1 0.23

Input Cc1cc(C)c(-c2nnc(-c3ccc(-n4c5ccccc5c5ccccc54)c(C)c3)o2)c(C)c1 , output reported photoluminescence quantum yield. 0.44

# return recorded photoluminescence quantum yield for input CCCC1=Cc2nc1ccc1[nH]c(cc1CCC)c1nc(c(NC(C)=O)cc3[nH]c2cc3CCC)C(CCC)=C1 0.1

Give reported photoluminescence quantum yield value for CCN1C(=O)C(C2C(=O)c3c4ccccc4cc4cc5ccccc5c2c34)SC1=S (stereo unspecified) 0.339

Return the recorded photoluminescence quantum yield value; entry: CN(C)c1ccc(-c2nc(-c3ccc(-n4c5ccccc5c5ccccc54)cc3)cc(-c3ccc(-n4c5ccccc5c5ccccc54)cc3)n2)cc1 0.07

For CCc1c(C)c2n(c1C)[B-](F)(F)[N+]1=C(c3ccc[nH]3)c3ccccc3C1=C2 , write its photoluminescence quantum yield. 0.72

Every entry's value here was drawn from the Deep4Chem optical property database.
